conditions: human, plasma, oral, 20 mg, Tmax, Median (range), single dose (Day-2), n = 5
measurement-name: Tmax (h)
Answers are plain numbers, in h.

Specify Tmax for CCc1nc(C(N)=O)c(Nc2ccc(N3CCC(N4CCN(C)CC4)CC3)c(OC)c2)nc1NC1CCOCC1 and stop.
2

---

conditions: human, plasma, oral, 120 mg, AUC24, Mean (SD), single dose (Day-2), n = 3
measurement-name: AUC (ng·h/mL)
Give bare numbers, in ng·h/mL.

Specify AUC for CCc1nc(C(N)=O)c(Nc2ccc(N3CCC(N4CCN(C)CC4)CC3)c(OC)c2)nc1NC1CCOCC1 and stop.
2480

---

conditions: human, plasma, oral, 40 mg, Cmax, Mean (SD), single dose (Day-2), n = 3
measurement-name: Cmax (ng/mL)
Numbers only, in ng/mL.

Specify Cmax for CCc1nc(C(N)=O)c(Nc2ccc(N3CCC(N4CCN(C)CC4)CC3)c(OC)c2)nc1NC1CCOCC1 [gilteritinib, Gilteritinib] and stop.
25

---

conditions: human, plasma, oral, 200 mg, Cmax, Median (range), single dose (Day-2), n = 3
measurement-name: Cmax
Reply with a number, then the unit it belongs to.

Specify Cmax for CCc1nc(C(N)=O)c(Nc2ccc(N3CCC(N4CCN(C)CC4)CC3)c(OC)c2)nc1NC1CCOCC1 and stop.
149 ng/mL

---

details: human, plasma, oral, 40 mg, t½, Mean (SD), multiple dosing QD (Day 15), 40 mg, n = 2; calculated from Rac
measurement-name: half-life (h)
Give bare numbers, in h.

Specify half-life for CCc1nc(C(N)=O)c(Nc2ccc(N3CCC(N4CCN(C)CC4)CC3)c(OC)c2)nc1NC1CCOCC1 and stop.
152

---

details: human, plasma, oral, 20 mg, Cmax, Mean (SD), single dose (Day-2), n = 5
measurement-name: Cmax (ng/mL)
Numbers only, in ng/mL.

Specify Cmax for CCc1nc(C(N)=O)c(Nc2ccc(N3CCC(N4CCN(C)CC4)CC3)c(OC)c2)nc1NC1CCOCC1 and stop.
28.1

---

details: human, plasma, oral, 300 mg, Tmax, Median (range), single dose (Day-2), n = 3
measurement-name: Tmax
Reply with a number, then the unit it belongs to.

Specify Tmax for CCc1nc(C(N)=O)c(Nc2ccc(N3CCC(N4CCN(C)CC4)CC3)c(OC)c2)nc1NC1CCOCC1 and stop.
6.1 h

---

settings: human, plasma, oral, 120 mg, Tmax, Median (range), single dose (Day-2), n = 3
measurement-name: Tmax (h)
Give bare numbers, in h.

Specify Tmax for CCc1nc(C(N)=O)c(Nc2ccc(N3CCC(N4CCN(C)CC4)CC3)c(OC)c2)nc1NC1CCOCC1 and stop.
2.1

---

conditions: human, plasma, oral, 80 mg, Tmax, Median (range), single dose (Day-2), n = 3
measurement-name: Tmax (h)
Numbers only, in h.

Specify Tmax for CCc1nc(C(N)=O)c(Nc2ccc(N3CCC(N4CCN(C)CC4)CC3)c(OC)c2)nc1NC1CCOCC1 [gilteritinib, Gilteritinib] and stop.
4

---

details: human, plasma, oral, 40 mg, Tmax, Median (range), single dose (Day-2), n = 3
measurement-name: Tmax (h)
Give bare numbers, in h.

Specify Tmax for CCc1nc(C(N)=O)c(Nc2ccc(N3CCC(N4CCN(C)CC4)CC3)c(OC)c2)nc1NC1CCOCC1 and stop.
5.98

---

details: human, plasma, oral, 450 mg, Tmax, Median (range), single dose (Day-2), n = 3
measurement-name: Tmax
Reply with a number, then the unit it belongs to.

Specify Tmax for CCc1nc(C(N)=O)c(Nc2ccc(N3CCC(N4CCN(C)CC4)CC3)c(OC)c2)nc1NC1CCOCC1 and stop.
5.8 h

---

settings: human, plasma, oral, 40 mg, Cmax, Median (range), single dose (Day-2), n = 3
measurement-name: Cmax (ng/mL)
Numbers only, in ng/mL.

Specify Cmax for CCc1nc(C(N)=O)c(Nc2ccc(N3CCC(N4CCN(C)CC4)CC3)c(OC)c2)nc1NC1CCOCC1 [gilteritinib, Gilteritinib] and stop.
17

---

conditions: human, plasma, oral, 200 mg, t½, Median (range), multiple dosing QD (Day 15), 200 mg, n = 2; calculated from Rac
measurement-name: half-life (h)
Give bare numbers, in h.

Specify half-life for CCc1nc(C(N)=O)c(Nc2ccc(N3CCC(N4CCN(C)CC4)CC3)c(OC)c2)nc1NC1CCOCC1 and stop.
142

---

conditions: human, plasma, oral, 20 mg, t½, Median (range), multiple dosing QD (Day 15), 20 mg, n = 3; calculated from Rac
measurement-name: half-life (h)
Give bare numbers, in h.

Specify half-life for CCc1nc(C(N)=O)c(Nc2ccc(N3CCC(N4CCN(C)CC4)CC3)c(OC)c2)nc1NC1CCOCC1 and stop.
54.5

---

details: human, plasma, oral, 200 mg, Cmax, Mean (SD), single dose (Day-2), n = 3
measurement-name: Cmax (ng/mL)
Give bare numbers, in ng/mL.

Specify Cmax for CCc1nc(C(N)=O)c(Nc2ccc(N3CCC(N4CCN(C)CC4)CC3)c(OC)c2)nc1NC1CCOCC1 and stop.
168

---

settings: human, plasma, oral, 20 mg, t½, Mean (SD), multiple dosing QD (Day 15), 20 mg, n = 3; calculated from Rac
measurement-name: half-life (h)
One number for each entry, in h.

Specify half-life for CCc1nc(C(N)=O)c(Nc2ccc(N3CCC(N4CCN(C)CC4)CC3)c(OC)c2)nc1NC1CCOCC1 and stop.
62.1

---

details: human, plasma, oral, 200 mg, AUC24, Mean (SD), single dose (Day-2), n = 3
measurement-name: AUC (ng·h/mL)
Answers are plain numbers, in ng·h/mL.

Specify AUC for CCc1nc(C(N)=O)c(Nc2ccc(N3CCC(N4CCN(C)CC4)CC3)c(OC)c2)nc1NC1CCOCC1 and stop.
3020

---

conditions: human, plasma, oral, 300 mg, Cmax, Median (range), single dose (Day-2), n = 3
measurement-name: Cmax (ng/mL)
One number for each entry, in ng/mL.

Specify Cmax for CCc1nc(C(N)=O)c(Nc2ccc(N3CCC(N4CCN(C)CC4)CC3)c(OC)c2)nc1NC1CCOCC1 and stop.
137

---

settings: human, plasma, oral, 80 mg, AUC24, Median (range), single dose (Day-2), n = 3
measurement-name: AUC (ng·h/mL)
One number for each entry, in ng·h/mL.

Specify AUC for CCc1nc(C(N)=O)c(Nc2ccc(N3CCC(N4CCN(C)CC4)CC3)c(OC)c2)nc1NC1CCOCC1 [gilteritinib, Gilteritinib] and stop.
995

---

conditions: human, plasma, oral, 300 mg, t½, Median (range), multiple dosing QD (Day 15), 300 mg, n = 3; calculated from Rac
measurement-name: half-life (h)
Give bare numbers, in h.

Specify half-life for CCc1nc(C(N)=O)c(Nc2ccc(N3CCC(N4CCN(C)CC4)CC3)c(OC)c2)nc1NC1CCOCC1 and stop.
159

---

conditions: human, plasma, oral, 20 mg, Cmax, Median (range), single dose (Day-2), n = 5
measurement-name: Cmax

Specify Cmax for CCc1nc(C(N)=O)c(Nc2ccc(N3CCC(N4CCN(C)CC4)CC3)c(OC)c2)nc1NC1CCOCC1 and stop.
23.7 ng/mL

---

details: human, plasma, oral, 80 mg, Cmax, Mean (SD), single dose (Day-2), n = 3
measurement-name: Cmax
Reply with a number, then the unit it belongs to.

Specify Cmax for CCc1nc(C(N)=O)c(Nc2ccc(N3CCC(N4CCN(C)CC4)CC3)c(OC)c2)nc1NC1CCOCC1 [gilteritinib, Gilteritinib] and stop.
75.3 ng/mL

---

settings: human, plasma, oral, 450 mg, Cmax, Mean (SD), single dose (Day-2), n = 3
measurement-name: Cmax
Reply with a number, then the unit it belongs to.

Specify Cmax for CCc1nc(C(N)=O)c(Nc2ccc(N3CCC(N4CCN(C)CC4)CC3)c(OC)c2)nc1NC1CCOCC1 and stop.
0.208 µg/mL

---

details: human, plasma, oral, 300 mg, AUC24, Median (range), single dose (Day-2), n = 3
measurement-name: AUC

Specify AUC for CCc1nc(C(N)=O)c(Nc2ccc(N3CCC(N4CCN(C)CC4)CC3)c(OC)c2)nc1NC1CCOCC1 [gilteritinib, Gilteritinib] and stop.
2.45 µg·h/mL

---

settings: human, plasma, oral, 40 mg, t½, Median (range), multiple dosing QD (Day 15), 40 mg, n = 2; calculated from Rac
measurement-name: half-life (h)
Answers are plain numbers, in h.

Specify half-life for CCc1nc(C(N)=O)c(Nc2ccc(N3CCC(N4CCN(C)CC4)CC3)c(OC)c2)nc1NC1CCOCC1 [gilteritinib, Gilteritinib] and stop.
152

---

target: CYP3A4 (Homo sapiens); test: clinical; details: plasma, po, 2 mg
Sequence (P08684 whole entry): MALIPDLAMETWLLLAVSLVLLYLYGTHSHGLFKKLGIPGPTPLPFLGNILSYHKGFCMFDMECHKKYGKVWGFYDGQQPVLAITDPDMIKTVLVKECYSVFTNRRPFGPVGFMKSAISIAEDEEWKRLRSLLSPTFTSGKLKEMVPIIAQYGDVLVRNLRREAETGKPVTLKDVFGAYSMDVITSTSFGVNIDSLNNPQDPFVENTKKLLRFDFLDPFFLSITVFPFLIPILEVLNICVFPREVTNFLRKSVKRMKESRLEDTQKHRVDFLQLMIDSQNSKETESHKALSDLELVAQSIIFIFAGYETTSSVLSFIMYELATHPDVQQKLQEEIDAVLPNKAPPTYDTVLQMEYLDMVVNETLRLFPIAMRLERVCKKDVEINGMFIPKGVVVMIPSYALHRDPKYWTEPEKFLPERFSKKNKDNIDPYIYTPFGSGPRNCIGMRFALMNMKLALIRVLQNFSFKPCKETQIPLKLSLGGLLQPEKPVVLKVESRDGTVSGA
measurement-name: AUC (µg·h/mL)
Numbers only, in µg·h/mL.

Specify AUC for Cc1ncc2n1-c1ccc(Cl)cc1C(c1ccccc1F)=NC2 [midazolam, reference compound] and stop.
0.0543
